Target: T1, human GPC3 on cells (human, UniProt P51654 25-554)
T1 construct: whole, on cells; over-expressed on CHOK1 cells or endogenous on HEPG2, Hep3B and Huh-7 hepatocellular carcinoma cells; the cell line is named under assay; also called GPC3-CHOK1 cells; human GPC3 over-expressed CHOK1 cells
Assay: FACS, Hep3B cells
Procedure: To evaluate the antigen binding property, the humanized antibodies were analyzed for their binding to human GPC3 over-expressed CHOK1 cells, HEPG2 cells, Hep3B cells and Huh-7 cells by FACS. Briefly, GPC3-CHOK1 cells, HEPG2 cells, Hep3B cells and Huh-7 cells were firstly incubated with Fc blocking reagent at 4° C. for 15 mins. Cells were washed by FACS buffer and divided to each well with 4-fold serially diluted humanized antibodies starting at 10 μg/mL at 4° C. for 60 mins. […]
Label Yes when EC50 is strictly below 0.06 µg/mL; otherwise label No.

Solved cases (4 shown):
- BINDER: "52H5D3B8-6# chimeric mAb (antibody, V domains shown, CDR3 mutant of the 52H5D3B8 chimeric mAb (human IgG1); also called 52H5D3B8-6#-VH+VL) VH: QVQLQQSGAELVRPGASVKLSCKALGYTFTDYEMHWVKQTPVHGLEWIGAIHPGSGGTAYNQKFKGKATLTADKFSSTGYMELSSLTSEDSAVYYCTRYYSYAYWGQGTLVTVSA VL: DVVMTQTPLSLPVSLGDQASISCRSSQSLVHSNGNTYLQWYLQKPGQSPKLLIYKVSNRFSGVPDRFSGSGSGTDFILKISRVEAEDLGVYFCFQSIHVPYTFGGGTKLEIK"
  LABEL_VALUE: "No"
- BINDER: "52H5D3B8-6#-VH1+VL1 (antibody, V domains shown, humanized) VH: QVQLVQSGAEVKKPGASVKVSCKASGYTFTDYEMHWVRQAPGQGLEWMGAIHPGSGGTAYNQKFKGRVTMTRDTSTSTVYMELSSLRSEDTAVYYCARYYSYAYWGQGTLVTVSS VL: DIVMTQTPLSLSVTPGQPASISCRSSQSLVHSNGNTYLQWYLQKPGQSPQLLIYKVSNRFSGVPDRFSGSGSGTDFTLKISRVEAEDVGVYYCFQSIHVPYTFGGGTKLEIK"
  LABEL_VALUE: "No"
- BINDER: "52H5D3B8-6#-VH1+VL3 (antibody, V domains shown, humanized) VH: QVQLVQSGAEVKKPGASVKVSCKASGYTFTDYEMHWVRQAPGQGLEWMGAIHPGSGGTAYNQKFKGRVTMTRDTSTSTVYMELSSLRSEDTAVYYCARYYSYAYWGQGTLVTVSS VL: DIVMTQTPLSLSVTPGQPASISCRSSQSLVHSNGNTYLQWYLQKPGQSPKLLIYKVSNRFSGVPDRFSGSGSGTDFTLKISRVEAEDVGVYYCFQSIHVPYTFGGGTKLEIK"
  LABEL_VALUE: "Yes"
- BINDER: "52H5D3B8-6#-VH2+VL2 (antibody, V domains shown, humanized) VH: QVQLVQSGAEVKKPGASVKVSCKASGYTFTDYEMHWVRQAPGQGLEWIGAIHPGSGGTAYNQKFKGRVTMTADTSTSTVYMELSSLRSEDTAVYYCTRYYSYAYWGQGTLVTVSS VL: DIVMTQTPLSLSVTPGQPASISCRSSQSLVHSNGNTYLQWYLQKPGQSPQLLIYKVSNRFSGVPDRFSGSGSGTDFTLKISRVEAEDVGVYFCFQSIHVPYTFGGGTKLEIK"
  LABEL_VALUE: "No"

**Q:** # check: EC50 < 0.06 µg/mL for 52H5D3B8-6#-VH3+VL2 (antibody, V domains shown, humanized) VH: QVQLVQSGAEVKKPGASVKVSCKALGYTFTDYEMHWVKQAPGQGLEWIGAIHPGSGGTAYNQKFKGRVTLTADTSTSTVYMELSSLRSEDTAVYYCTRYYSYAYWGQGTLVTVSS VL: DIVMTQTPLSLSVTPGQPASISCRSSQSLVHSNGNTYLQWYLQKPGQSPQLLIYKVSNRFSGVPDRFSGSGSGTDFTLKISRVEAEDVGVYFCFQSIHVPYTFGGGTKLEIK
**A:** No

Taken from patent US20240409663A1.
